Give Hepatotoxicity (moderate) for every item shown.
assay_comment: Highest frequency of moderate liver toxicity observed during clinical trials, expressed as a percentage. [column '% BIOL' in source]
assay_context: human
Use % as the unit, but write only the number.

Q: Requested field: Hepatotoxicity (moderate). Item: CC(CCc1ccccc1)NCC(O)c1ccc(O)c(C(N)=O)c1 (stereo unspecified)
Ans: 20.5

Q: Try COc1c2occc2c(OC)c2c(=O)cc(C)oc12 next.
Ans: 0

Q: Try CN[C@H](CC(C)C)C(=O)N[C@H]1C(=O)N[C@@H](CC(N)=O)C(=O)N[C@H]2C(=O)N[C@H]3C(=O)N[C@H](C(=O)N[C@H](C(=O)O)c4cc(O)cc(O)c4-c4cc3ccc4O)[C@H](O)c3ccc(c(Cl)c3)Oc3cc2cc(c3O[C@@H]2O[C@H](CO)[C@@H](O)[C@H](O)[C@H]2O[C@H]2C[C@](C)(N)[C@H](O)[C@H](C)O2)Oc2ccc(cc2Cl)[C@H]1O next.
Ans: 50

Q: Try CCCCCCCCNC(C)C(O)c1ccc(SC(C)C)cc1 (stereo unspecified) next.
Ans: 15

Q: Try O=C(O)C1=C(C[n+]2ccc(CCS(=O)(=O)[O-])cc2)CS[C@@H]2[C@H](NC(=O)[C@H](NC(=O)c3[nH]cnc3C(=O)O)c3ccccc3)C(=O)N12 next.
Ans: 18.8

Q: Try Cc1c(C(C)C)c(=O)n(-c2ccccc2)n1C next.
Ans: 0

From: ChEMBL document CHEMBL3137667
